test: Solubility of the compound in FeSSIF at pH 5.8; assay type: physicochemical; conditions: simulated gi fluid
Record form. Attribute: solubility. Fill in for each entry.
Number in µM, nothing else.

Give its solubility value. Item: `C[C@H]1C[C@@H](N2C(=N)N[C@](C)(c3cccc(Nc4ccc(C5CC5)nc4)c3Cl)CC2=O)CCO1`
959

Report solubility for `[H]/N=C1\N[C@](C)(c2cccc(Nc3cnc(C4CC4)nc3)c2Cl)CC(=O)N1[C@H]1CCO[C@@H](C)C1` please.
1372

Consider the molecule shown here: `C[C@@]1(c2cccc(Nc3ccccc3)c2Cl)CC(=O)N(C2CCOCC2)C(=N)N1` What is its recorded solubility?
1057

Would you kindly share the measured solubility for `C[C@@]1(c2cccc(Nc3ccc(C4CC4)nc3)c2Cl)CC(=O)N(C2CCOCC2)C(=N)N1` ?
1161

---

Measured property: IC50

Enter reported IC50 observed with Cathepsin D (Homo sapiens, UniProt P07339) for `C[C@@]1(c2cccc(Nc3ccccc3)c2Cl)CC(=O)N(C2CCOCC2)C(=N)N1`
Sequence (P07339 65-162 limits assumed): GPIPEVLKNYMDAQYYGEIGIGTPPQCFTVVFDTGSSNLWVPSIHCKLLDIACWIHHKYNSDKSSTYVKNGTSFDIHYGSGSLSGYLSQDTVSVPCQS
Sequence (P07339 169-412 limits assumed): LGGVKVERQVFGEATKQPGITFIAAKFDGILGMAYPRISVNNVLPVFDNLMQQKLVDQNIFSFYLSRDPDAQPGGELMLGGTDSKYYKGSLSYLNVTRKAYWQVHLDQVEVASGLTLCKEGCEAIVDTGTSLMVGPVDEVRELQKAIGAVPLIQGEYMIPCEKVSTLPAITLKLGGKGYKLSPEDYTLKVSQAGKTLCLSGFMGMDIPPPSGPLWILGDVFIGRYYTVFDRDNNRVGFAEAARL
58 nM

Checklist item: IC50 tested on Cathepsin D (Homo sapiens, UniProt P07339), entry `[H]/N=C1\N[C@](C)(c2cccc(Nc3cnc(C4CC4)nc3)c2Cl)CC(=O)N1[C@H]1CCO[C@@H](C)C1` , value?
215 nM

Give Cathepsin D (Homo sapiens, UniProt P07339) IC50 for `C[C@@]1(c2cccc(Nc3ccc(C4CC4)nc3)c2Cl)CC(=O)N(C2CCOCC2)C(=N)N1`
1190 nM

Item: `C[C@H]1C[C@@H](N2C(=N)N[C@](C)(c3cccc(Nc4ccc(C5CC5)nc4)c3Cl)CC2=O)CCO1` Test system: Cathepsin D (Homo sapiens, UniProt P07339) Read-out: IC50 Value: ?
64 nM

API: value(readout=IC50, system=Cathepsin D (Homo sapiens, UniProt P07339)) for record `C[C@H]1C[C@@H](N2C(=N)N[C@](C)(c3cccc(NC(=O)c4cccc(C#N)c4)c3Cl)CC2=O)CCO1`
3890 nM

Lookup: IC50 / Cathepsin D (Homo sapiens, UniProt P07339) / `C[C@@]1(c2cccc(NC(=O)c3ccccc3)c2Cl)CC(=O)N(C2CCOCC2)C(=N)N1`
> 10000 nM

---

So I've got a bunch of compounds here, and I need their AUC values.
test: AUC in Sprague-Dawley rat blood at 10 mg/kg, po measured at 2 to 72 hrs by LC-MS/MS analysis; assay type: ADME, organism-based; parameters: dose 10 mg/kg, time 2-72 hrs, route po
Quick note: give the figure in µM·h, leave out the unit.

Request the reported AUC associated with `C[C@H]1C[C@@H](N2C(=N)N[C@](C)(c3cccc(NC(=O)c4cccc(C#N)c4)c3Cl)CC2=O)CCO1`
1.41

For the compound `C[C@H]1C[C@@H](N2C(=N)N[C@](C)(c3cccc(Nc4ccc(C5CC5)nc4)c3Cl)CC2=O)CCO1` , what AUC is on record?
16.4

---

So I've got a bunch of compounds here, and I need their CL free values.
test: Unbound intrinsic clearance in human hepatocytes measured per 10^6 cells; type: ADME, cell-based, Hepatocyte
# value in µL/min; strip the unit string

Look at this compound and give its reported CL free. `C[C@H]1C[C@@H](N2C(=N)N[C@](C)(c3cccc(NC(=O)c4cccc(C#N)c4)c3Cl)CC2=O)CCO1`
5

Dear colleague, I am looking for the recorded CL free of the following compound: `C[C@H]1C[C@@H](N2C(=N)N[C@](C)(c3cccc(Nc4ccc(C5CC5)nc4)c3Cl)CC2=O)CCO1`
16
